molecular target: MMP-9 (Homo sapiens, UniProt P14780); construct: made in house; host or cells: MMP-9-transfected HT1080 cells (spent media); assay: MMP-9 inhibition (in vitro Ki); assay type: biochemical; settings: Table 9; read-out: MMP-9 Ki (IC-50)
Sequence (P14780 107-707 limits assumed): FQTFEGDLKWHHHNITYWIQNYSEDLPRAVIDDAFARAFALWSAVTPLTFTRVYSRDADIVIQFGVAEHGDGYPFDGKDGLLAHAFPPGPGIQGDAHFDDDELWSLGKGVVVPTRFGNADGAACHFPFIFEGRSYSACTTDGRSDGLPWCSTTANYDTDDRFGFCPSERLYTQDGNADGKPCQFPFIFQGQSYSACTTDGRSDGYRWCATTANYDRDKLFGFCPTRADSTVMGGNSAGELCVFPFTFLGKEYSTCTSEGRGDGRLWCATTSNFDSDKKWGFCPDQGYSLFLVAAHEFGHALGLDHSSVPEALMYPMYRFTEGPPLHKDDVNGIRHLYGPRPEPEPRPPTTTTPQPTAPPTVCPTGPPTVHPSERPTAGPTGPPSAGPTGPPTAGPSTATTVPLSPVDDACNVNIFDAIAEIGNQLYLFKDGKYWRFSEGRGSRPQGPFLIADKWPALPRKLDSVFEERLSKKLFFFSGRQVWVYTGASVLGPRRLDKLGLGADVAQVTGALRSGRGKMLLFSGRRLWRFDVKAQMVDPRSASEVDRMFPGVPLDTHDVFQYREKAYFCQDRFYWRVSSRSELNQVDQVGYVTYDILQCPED
Measured Property: pKi
Scale note: pKi = -log10(concentration in M).

| Compound | Test System | Reading |
| --- | --- | --- |
| O=C(NO)C1(S(=O)(=O)N2CCC(c3ccc(-n4ccnc4)cn3)CC2)CCOCC1 [Example A188] | MMP-9 (Homo sapiens, UniProt P14780) | 7.26 |
| COC(=O)CCCCC1CCN(S(=O)(=O)C2(C(=O)NO)CCOCC2)CC1 [Example A103] | MMP-9 (Homo sapiens, UniProt P14780) | 8.47 |
| CCc1nc(-c2ccc(N3CCN(S(=O)(=O)C4(C(=O)NO)CCOCC4)CC3)cc2)no1 [Example A176] | MMP-9 (Homo sapiens, UniProt P14780) | 9.09 |
| CC(C)CC#Cc1ccc(C2CCN(S(=O)(=O)C3(C(=O)NO)CCOCC3)CC2)nc1 [Example A138] | MMP-9 (Homo sapiens, UniProt P14780) | 9.62 |
| CCS(=O)(=O)c1ccc(N2CCN(S(=O)(=O)C3(C(=O)NO)CCOCC3)CC2)cc1 [Example A164] | MMP-9 (Homo sapiens, UniProt P14780) | 5.53 |

**Q:** Kindly indicate its recorded pKi. Item: Cc1cnn(-c2ccc(C3CCN(S(=O)(=O)C4(C(=O)NO)CCOCC4)CC3)nc2)c1 [Example A193]
**A:** 8.08

**Q:** Kindly indicate its recorded pKi. Item: O=C(NO)C1(S(=O)(=O)N2CCC(c3cnc(OCC(F)(F)C(F)F)cn3)CC2)CCOCC1 [Example A206]
**A:** 9.08

**Q:** Let me know recorded pKi for Cn1nnc(-c2ccc(C3CCN(S(=O)(=O)C4(C(=O)NO)CCOCC4)CC3)cc2)n1 [Example A202] , thanks.
**A:** 9.04

**Q:** Return pKi for the following compound: CCC(F)(F)c1ccc(C2CCN(S(=O)(=O)C3(C(=O)NO)CCOCC3)CC2)nc1 [Example A129]
**A:** 7.97

**Q:** Note pKi for the compound shown: O=C(NO)C1(S(=O)(=O)N2CCC(c3ccc(CCC4CCC4)cn3)CC2)CCOCC1 [Example A120]
**A:** 9.80

**Q:** Tell me pKi reported for CC1(C)O[C@H]2C[C@@](C(=O)NO)(S(=O)(=O)N3CCC(c4ccc(CCC(F)(F)C(F)(F)F)cn4)CC3)C[C@H]2O1 [Example A73]
**A:** 9.80

**Q:** Identify pKi associated with the compound O=C(NO)C1(S(=O)(=O)N2CCC(c3ccc(CCC(F)(F)C(F)(F)F)cn3)CC2)CCN(c2ccc(Cl)cc2)CC1 [Example A158]
**A:** 7.87

**Q:** Hello, please tell me recorded pKi for this one: CCCC#Cc1ccc(C2CCN(S(=O)(=O)C3(C(=O)NO)CCOCC3)CC2)nc1 [Example A139]
**A:** 9.82

**Q:** Assign pKi to the following record: O=C(NO)C1(S(=O)(=O)N2CCC(c3ccc(-c4nccs4)cn3)CC2)CCOCC1 [Example A200]
**A:** 8.17

**Q:** Consider the compound O=C(/C=C/C=C/C1CCN(S(=O)(=O)C2(C(=O)NO)CCOCC2)CC1)N1CCCCC1 [Example A78] and give its recorded pKi.
**A:** 6.37
